From: ChEMBL document CHEMBL4414648

Subject Of Test: Histone deacetylase 3/Nuclear receptor corepressor 2 (HDAC3/NCoR2) (Homo sapiens, UniProt O15379)
Sequence (O15379 whole entry): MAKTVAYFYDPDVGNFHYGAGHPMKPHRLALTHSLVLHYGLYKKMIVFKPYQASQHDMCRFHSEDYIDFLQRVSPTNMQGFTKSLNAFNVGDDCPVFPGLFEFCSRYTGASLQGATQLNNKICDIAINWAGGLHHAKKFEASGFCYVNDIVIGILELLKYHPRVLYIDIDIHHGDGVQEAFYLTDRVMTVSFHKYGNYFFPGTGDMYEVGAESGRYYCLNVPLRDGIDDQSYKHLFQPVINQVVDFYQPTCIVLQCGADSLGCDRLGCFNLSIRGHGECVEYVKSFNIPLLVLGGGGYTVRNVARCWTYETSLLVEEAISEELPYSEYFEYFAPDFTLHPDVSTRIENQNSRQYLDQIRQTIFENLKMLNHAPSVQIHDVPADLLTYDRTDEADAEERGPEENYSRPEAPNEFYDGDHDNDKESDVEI
Sequence (Q9Y618 whole entry, further chain): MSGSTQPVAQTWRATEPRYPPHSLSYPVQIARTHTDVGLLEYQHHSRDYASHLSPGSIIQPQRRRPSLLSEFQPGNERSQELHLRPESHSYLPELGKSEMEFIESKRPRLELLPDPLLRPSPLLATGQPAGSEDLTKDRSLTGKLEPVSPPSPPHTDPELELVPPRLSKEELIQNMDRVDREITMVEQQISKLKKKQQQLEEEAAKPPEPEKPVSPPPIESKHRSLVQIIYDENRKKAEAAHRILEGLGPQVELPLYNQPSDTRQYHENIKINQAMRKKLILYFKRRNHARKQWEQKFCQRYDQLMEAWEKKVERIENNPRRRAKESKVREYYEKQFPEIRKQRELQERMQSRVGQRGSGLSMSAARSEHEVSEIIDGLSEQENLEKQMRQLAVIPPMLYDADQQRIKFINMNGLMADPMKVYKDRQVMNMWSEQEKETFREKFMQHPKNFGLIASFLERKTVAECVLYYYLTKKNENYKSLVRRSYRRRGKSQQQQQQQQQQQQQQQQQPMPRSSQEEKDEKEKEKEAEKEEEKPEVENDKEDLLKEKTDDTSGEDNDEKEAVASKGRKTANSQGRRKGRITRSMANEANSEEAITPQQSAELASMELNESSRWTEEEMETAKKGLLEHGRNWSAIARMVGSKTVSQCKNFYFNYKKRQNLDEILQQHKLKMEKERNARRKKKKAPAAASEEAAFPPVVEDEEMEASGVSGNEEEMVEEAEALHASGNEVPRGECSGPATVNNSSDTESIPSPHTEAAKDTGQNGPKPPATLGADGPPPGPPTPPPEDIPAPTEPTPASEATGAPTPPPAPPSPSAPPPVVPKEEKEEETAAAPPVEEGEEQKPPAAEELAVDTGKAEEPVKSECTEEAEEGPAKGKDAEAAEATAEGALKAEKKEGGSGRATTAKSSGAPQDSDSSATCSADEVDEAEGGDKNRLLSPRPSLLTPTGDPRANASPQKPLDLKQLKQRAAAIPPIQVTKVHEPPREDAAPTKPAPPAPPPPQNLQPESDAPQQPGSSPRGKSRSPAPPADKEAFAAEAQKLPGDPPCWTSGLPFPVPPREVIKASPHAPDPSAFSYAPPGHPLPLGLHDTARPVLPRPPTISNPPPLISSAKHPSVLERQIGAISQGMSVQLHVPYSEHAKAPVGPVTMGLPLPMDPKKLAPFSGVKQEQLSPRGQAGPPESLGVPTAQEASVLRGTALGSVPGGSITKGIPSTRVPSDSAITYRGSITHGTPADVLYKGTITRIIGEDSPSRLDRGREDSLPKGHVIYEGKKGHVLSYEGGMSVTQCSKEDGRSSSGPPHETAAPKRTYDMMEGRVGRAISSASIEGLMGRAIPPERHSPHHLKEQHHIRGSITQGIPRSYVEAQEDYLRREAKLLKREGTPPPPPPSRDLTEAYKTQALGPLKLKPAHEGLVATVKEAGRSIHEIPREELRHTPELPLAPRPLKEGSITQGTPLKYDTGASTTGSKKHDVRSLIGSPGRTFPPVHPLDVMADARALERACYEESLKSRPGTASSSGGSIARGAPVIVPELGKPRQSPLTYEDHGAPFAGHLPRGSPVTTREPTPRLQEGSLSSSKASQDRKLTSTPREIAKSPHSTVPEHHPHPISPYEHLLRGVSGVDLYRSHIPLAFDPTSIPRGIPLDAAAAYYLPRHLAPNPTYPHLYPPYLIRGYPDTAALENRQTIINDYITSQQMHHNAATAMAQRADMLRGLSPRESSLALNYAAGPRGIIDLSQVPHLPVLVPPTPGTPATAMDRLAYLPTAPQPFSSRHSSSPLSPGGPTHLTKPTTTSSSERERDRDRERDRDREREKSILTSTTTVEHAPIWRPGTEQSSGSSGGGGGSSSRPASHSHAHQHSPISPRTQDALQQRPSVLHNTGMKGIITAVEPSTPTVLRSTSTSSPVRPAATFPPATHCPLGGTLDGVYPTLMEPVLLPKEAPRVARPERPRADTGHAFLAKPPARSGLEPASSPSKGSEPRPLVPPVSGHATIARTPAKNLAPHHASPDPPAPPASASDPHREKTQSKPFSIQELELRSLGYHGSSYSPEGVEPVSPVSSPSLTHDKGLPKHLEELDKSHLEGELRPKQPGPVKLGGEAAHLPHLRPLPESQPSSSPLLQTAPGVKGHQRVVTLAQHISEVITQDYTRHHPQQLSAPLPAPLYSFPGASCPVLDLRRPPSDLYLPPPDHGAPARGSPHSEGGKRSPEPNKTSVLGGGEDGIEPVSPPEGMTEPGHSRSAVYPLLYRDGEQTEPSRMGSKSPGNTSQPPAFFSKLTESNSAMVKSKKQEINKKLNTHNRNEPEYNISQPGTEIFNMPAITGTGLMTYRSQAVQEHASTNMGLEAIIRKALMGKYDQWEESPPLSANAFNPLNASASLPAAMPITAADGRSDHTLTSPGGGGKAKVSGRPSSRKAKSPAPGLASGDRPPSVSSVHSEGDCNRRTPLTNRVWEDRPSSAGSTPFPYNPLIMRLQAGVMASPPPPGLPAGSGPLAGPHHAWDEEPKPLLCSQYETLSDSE
Measured Endpoint: IC50 (µM)

>>> measured_result("Nc1ccc(C(=O)NO)cc1")
18.4

I = O=C(NO)c1ccccc1 [BENZOHYDROXAMATE]
II = NCc1ccc(C(=O)NO)cc1
III = O=C(NO)c1ccc(Cc2nnc[nH]2)cc1
Arrange the 3 compounds by rising IC50, starting with the smallest. List labels; respect the requested ordering. III, II, I

1 = CC(=O)Nc1ccc(C(=O)NO)cc1
2 = Cc1nnc(-c2ccc(C(=O)NO)cc2)[nH]1
1 or 2 : whose IC50 is greater? Refer to your chosen entry by its label in the reply. 2
(2: 3.56 µM, 1: 1.67 µM)
